Where do the numbers come from? From PubChem BioAssay (NCATS).

- Protocol description: Quantitative High-Throughput drug screen in 47 multiple myeloma cell lines against the NCATS MIPE library collection: MM1S_ATCC cell viability assay (AID 1918980); note: potency is the fitted concentration of half-maximal effect; nearly all actives have a fitted effect of over 45% in size
- Setup conditions: MM1S myeloma viability, CellTiter-Glo ATP luminescence, 48 h; series mostly up to 45.8 µM
Results filed as inconclusive are left out. Active and inactive are the calls of the source. Calls come from the whole dose curve; as a rule, active = well fitted cell-killing curve with a large enough effect; inconclusive = small, poorly fitted or top-dose-only effect, or effect the other way; inactive = no such curve, though single readings can be large or run the other way.
Readout label: Potency

Would you please look over these solved cases?
• O=c1[nH]c2ccccc2n1C1CCN(Cc2ccc(-c3[nH]c4cc5ncnc5cc4nc3-c3ccccc3)cc2)CC1 = 18.7 µM (active)
• CC(O)=C(C#N)C(=O)Nc1cc(Br)ccc1Br = 20.9 µM (active)
• O=C(Oc1ccc([N+](=O)[O-])cc1)N1CCN(Cc2cccc(Oc3ccccc3)c2)CC1 = 11.8 µM (active)
• O=S(=O)(CC1CS1)c1ccc(Oc2ccccc2)cc1 (centres undefined) = 14.8 µM (active)
• CN1[C@H]2CC(O)C[C@H]1[C@H]1O[C@H]12 (some centres undefined) = 18.7 µM (active)

Dear colleague, please send me the reported Potency for `O=c1[nH]c2ccc(Cl)cc2c(N[C@@H]2CN3CCC2CC3)c1-c1nc2ccccc2[nH]1` when you can. 0.0743 µM (active)

Dear colleague, please send me the reported Potency for `CC(C)(O)C=CC(=O)[C@](C)(O)[C@H]1[C@H](O)C[C@]2(C)[C@@H]3CC=C4[C@@H](C=C(O)C(=O)C4(C)C)[C@]3(C)C(=O)C[C@@]12C` when you can. 0.0418 µM (active)

Dear colleague, please send me the reported Potency for `CCOC(=O)c1c(C(C#N)=CN)c2ccc(Cl)c(Cl)c2n1C` when you can. 23.5 µM (active)
